Target: h-GABA-A α5β3γ2 (Homo sapiens, UniProt P18507+P31644)
Test: [3H]flumazenil competition binding assay, membranes of HEK293 cells expressing GABAA receptors
Settings: displacement of [3H]-Flumazenil 0.5 nM, HEK293 cells expressing human receptors, mean of two determinations; Table 1
quantityMeasured: Ki (nM)

compound	unitSpec	dataValue
Cc1cc(-c2noc(C)c2Cn2ncc(N3CC4(CCCO4)C3)cc2=O)no1	nM	15.4
Cc1ccc(-c2noc(C)c2Cn2ncc(N3CC4CC(C3)O4)cc2=O)cn1	nM	12.2
Cc1ccc(-c2noc(C)c2Cn2ncc(N3CCC(c4ccnn4C)CC3)cc2=O)cn1	nM	1.7
Cc1ccc(-c2noc(C)c2Cn2ncc(-c3cnn(CC4(C)COC4)c3)cc2=O)cn1	nM	29.7
Cc1ccc(-c2noc(C)c2Cn2ncc(-c3cnn(CC4CC4)c3)cc2=O)cn1	nM	22.7
CO[C@@H]1CN(c2cnn(Cc3c(-c4ccc(C)nc4)noc3C)c(=O)c2)[C@@H]1C	nM	10.8
Cc1ncccc1N1CCN(c2cnn(Cc3c(-c4ccc(Cl)nc4)noc3C)c(=O)c2)CC1	nM	2.6
Cc1cc(-c2noc(C)c2Cn2ncc(N3CCN(C4CC4)CC3)cc2=O)no1	nM	5.9
Cc1onc(-c2ccc(Cl)nc2)c1Cn1ncc(N2CC3(C[C@@H](F)CO3)C2)cc1=O	nM	45.1
CCOC1CN(c2cnn(Cc3c(-c4ccc(C)nn4)noc3CF)c(=O)c2)C1	nM	8.6
Cc1ccc(-c2noc(C)c2Cn2ncc(N3CC(Oc4ccc(C)nn4)C3)cc2=O)cn1	nM	37.4
COc1ncc(-c2cnn(Cc3c(-c4ccc(C)nc4)noc3C)c(=O)c2)cc1Cl	nM	8.6
Cc1onc(-c2ccc(C(F)(F)F)nc2)c1Cn1ncc(N2CCN(C3CC3)CC2)cc1=O	nM	26.4
Cc1ccc(-c2noc(C)c2Cn2ncc(N3C[C@H]4CC[C@@H](C3)O4)cc2=O)cn1	nM	0.6
Cc1ccc(-c2noc(C)c2Cn2ncc(N3CC[C@@H](C(=O)NC4CC4)C3)cc2=O)cn1	nM	33.4
Cc1ccc(-c2noc(C)c2Cn2ncc(N3CC[C@@H](OC(C)(C)C)C3)cc2=O)cn1	nM	24.8
Cc1ccc(-c2noc(C)c2Cn2ncc(N3C[C@@H](C)N[C@@H](C)C3)cc2=O)cn1	nM	1.6
Cc1ccc(-c2noc(C)c2Cn2ncc(N3CC4(CCCO4)C3)cc2=O)nn1	nM	4.2
Cc1ccc(-c2noc(C)c2Cn2ncc(N3CC4(C[C@@H](OC(F)F)CO4)C3)cc2=O)cn1	nM	17.8
Cc1ccc(-c2noc(C)c2Cn2ncc(N3CC(F)C3)cc2=O)cn1	nM	15.7
Cc1onc(-c2ccc(Cl)nc2)c1Cn1ncc(N2CC(OC(C)C(F)(F)F)C2)cc1=O (single isomer, unassigned) [Example 266]	nM	35.8
Cc1ccc(-c2noc(C)c2Cn2ncc(N3CC4(CC(F)CCO4)C3)cc2=O)cn1 (single isomer, unassigned) [Example 273]	nM	30
Cc1ccc(-c2noc(C)c2Cn2ncc(N3CC4(CC(C)CCO4)C3)cc2=O)nn1 (single isomer, unassigned) [Example 318]	nM	5.6
CCOc1ccc(-c2cnn(Cc3c(-c4ccc(C)nc4)noc3C)c(=O)c2)cn1	nM	27.2
Cc1onc(-c2ccc(Cl)nc2)c1Cn1ncc(N2CCC3(CCO3)CC2)cc1=O	nM	27.8
Cc1ccc(-c2noc(C)c2Cn2ncc(N3CC(OCC4CC4)C3)cc2=O)nn1	nM	4.2
Cc1ccc(-c2noc(C)c2Cn2ncc(N3CC(Oc4cccnc4)C3)cc2=O)cn1	nM	9.4
Cc1onc(-c2ncc(Cl)cc2F)c1Cn1ncc(N2C[C@@H](C)O[C@@H](C)C2)cc1=O	nM	0.7
Cc1ccc(-c2noc(C)c2Cn2ncc(-c3ccccc3)cc2=O)cn1	nM	10.5
Cc1ccc(-c2noc(C)c2Cn2ncc(N3CC4(C[C@H](F)CO4)C3)cc2=O)cn1	nM	14.3
Cc1ccc(-c2noc(C)c2Cn2ncc(N3CC4(COC4)C3)cc2=O)cn1	nM	38.4
Cc1onc(-c2ncc(C(F)(F)F)cn2)c1Cn1ncc(N2CC(OC3CC3)C2)cc1=O	nM	2.2

The origin of these recorded values is patent US11840528B2.
